Biological target: UniProt:P94556
Sequence (P94556 whole entry): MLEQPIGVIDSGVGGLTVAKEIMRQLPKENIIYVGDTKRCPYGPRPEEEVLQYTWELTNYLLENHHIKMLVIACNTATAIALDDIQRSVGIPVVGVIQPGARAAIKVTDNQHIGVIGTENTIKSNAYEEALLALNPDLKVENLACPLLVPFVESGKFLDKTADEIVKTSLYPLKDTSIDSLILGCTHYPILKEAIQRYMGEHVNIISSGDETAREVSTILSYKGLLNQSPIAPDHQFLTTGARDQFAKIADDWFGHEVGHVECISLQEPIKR
Assay: biochemical
pKi: −log10 of the molar value.
Would you please tag the item true when its pKi is 5 or above, and false when it is below?

{"columns": ["line notation", "system under test", "qualitative label"],
 "data": [
  ["O=S(=O)(O)c1nc2cc(S(=O)(=O)N3CCOCC3)ccc2[nH]1", "UniProt:P94556", "true"]
]}

Can `O=C(c1ccccc1)c1ccc2[nH]c(S(=O)(=O)O)nc2c1` be said to have pKi at or above 5? false

Can `Cc1ccc2[nH]c(S(=O)(=O)O)nc2c1` be said to have pKi at or above 5? false
